Target desc: OR4S2 (Homo sapiens, UniProt Q8NH73)
Sequence (Q8NH73 whole entry): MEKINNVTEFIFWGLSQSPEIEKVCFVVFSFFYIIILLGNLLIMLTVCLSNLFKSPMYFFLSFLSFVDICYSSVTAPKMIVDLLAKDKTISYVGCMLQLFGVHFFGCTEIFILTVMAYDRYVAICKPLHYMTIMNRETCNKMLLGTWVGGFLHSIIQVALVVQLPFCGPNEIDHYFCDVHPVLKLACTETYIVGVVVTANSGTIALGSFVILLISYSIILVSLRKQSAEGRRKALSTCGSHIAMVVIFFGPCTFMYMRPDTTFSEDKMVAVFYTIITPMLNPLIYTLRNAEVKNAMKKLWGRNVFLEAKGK
Assay info: Inhibition of malodor compound induced olfactory receptor activity in stable cell lines
Condition notes: inhibition of OR4S2 activity in presence of a single activating concentration of DMTS
pEC50: −log10 of the molar value.

[
  {
    "Molecular string": "CCCCCc1cc(C)ccn1",
    "pEC50": 4.04
  }
]
